system: M14 melanoma; assay: NCI-60 one-dose screen, 48 h (100 = growth as untreated, 0 = no growth, -100 = all killed); settings: 10 µM
This is part of a sample that, as a whole, favours compounds with a hit. Of some 83,000 tested, about 20% had one in any assay.
Each record here notes measured growth.
The answer is to be given in %; state only the numeric part.

chemical.string: O=C(CSc1nnc(-c2ccc3nc(-c4ccccc4)[nH]c3c2)o1)Nc1ccc(Cl)cc1
growth, %: 39.7

Challenge: Give its growth value. Item: Nc1nc(Nc2ccc(Cl)cc2)n(Cc2cccc(Br)c2)n1
Response given: -48.8

Challenge: Give its growth value. Item: COc1ccc(C(=O)/C=C/c2cc(F)cc(C(F)(F)F)c2)cc1S(N)(=O)=O
Response given: -68.4

Challenge: Give its growth value. Item: O=c1[nH][nH]c(Nc2ccccc2)c1N=Nc1ccc(F)cc1
Response given: 107

Challenge: Give its growth value. Item: CCOP(=O)(OCC)O[C@H]1CC[C@]2(C)[C@H]3CC[C@@H]4[C@@H]([C@](C)(O)CCC=C(C)C)CC[C@@]4(C)[C@]3(C)CC[C@H]2C1(C)C
Response given: 29
